target: full-length ATR (Homo sapiens (Human)); assay: ATR Inhibition Assay (radioactive-phosphate incorporation); assay type: biochemical; settings: read-out: ATR Ki
Sequence (Q13535 whole entry): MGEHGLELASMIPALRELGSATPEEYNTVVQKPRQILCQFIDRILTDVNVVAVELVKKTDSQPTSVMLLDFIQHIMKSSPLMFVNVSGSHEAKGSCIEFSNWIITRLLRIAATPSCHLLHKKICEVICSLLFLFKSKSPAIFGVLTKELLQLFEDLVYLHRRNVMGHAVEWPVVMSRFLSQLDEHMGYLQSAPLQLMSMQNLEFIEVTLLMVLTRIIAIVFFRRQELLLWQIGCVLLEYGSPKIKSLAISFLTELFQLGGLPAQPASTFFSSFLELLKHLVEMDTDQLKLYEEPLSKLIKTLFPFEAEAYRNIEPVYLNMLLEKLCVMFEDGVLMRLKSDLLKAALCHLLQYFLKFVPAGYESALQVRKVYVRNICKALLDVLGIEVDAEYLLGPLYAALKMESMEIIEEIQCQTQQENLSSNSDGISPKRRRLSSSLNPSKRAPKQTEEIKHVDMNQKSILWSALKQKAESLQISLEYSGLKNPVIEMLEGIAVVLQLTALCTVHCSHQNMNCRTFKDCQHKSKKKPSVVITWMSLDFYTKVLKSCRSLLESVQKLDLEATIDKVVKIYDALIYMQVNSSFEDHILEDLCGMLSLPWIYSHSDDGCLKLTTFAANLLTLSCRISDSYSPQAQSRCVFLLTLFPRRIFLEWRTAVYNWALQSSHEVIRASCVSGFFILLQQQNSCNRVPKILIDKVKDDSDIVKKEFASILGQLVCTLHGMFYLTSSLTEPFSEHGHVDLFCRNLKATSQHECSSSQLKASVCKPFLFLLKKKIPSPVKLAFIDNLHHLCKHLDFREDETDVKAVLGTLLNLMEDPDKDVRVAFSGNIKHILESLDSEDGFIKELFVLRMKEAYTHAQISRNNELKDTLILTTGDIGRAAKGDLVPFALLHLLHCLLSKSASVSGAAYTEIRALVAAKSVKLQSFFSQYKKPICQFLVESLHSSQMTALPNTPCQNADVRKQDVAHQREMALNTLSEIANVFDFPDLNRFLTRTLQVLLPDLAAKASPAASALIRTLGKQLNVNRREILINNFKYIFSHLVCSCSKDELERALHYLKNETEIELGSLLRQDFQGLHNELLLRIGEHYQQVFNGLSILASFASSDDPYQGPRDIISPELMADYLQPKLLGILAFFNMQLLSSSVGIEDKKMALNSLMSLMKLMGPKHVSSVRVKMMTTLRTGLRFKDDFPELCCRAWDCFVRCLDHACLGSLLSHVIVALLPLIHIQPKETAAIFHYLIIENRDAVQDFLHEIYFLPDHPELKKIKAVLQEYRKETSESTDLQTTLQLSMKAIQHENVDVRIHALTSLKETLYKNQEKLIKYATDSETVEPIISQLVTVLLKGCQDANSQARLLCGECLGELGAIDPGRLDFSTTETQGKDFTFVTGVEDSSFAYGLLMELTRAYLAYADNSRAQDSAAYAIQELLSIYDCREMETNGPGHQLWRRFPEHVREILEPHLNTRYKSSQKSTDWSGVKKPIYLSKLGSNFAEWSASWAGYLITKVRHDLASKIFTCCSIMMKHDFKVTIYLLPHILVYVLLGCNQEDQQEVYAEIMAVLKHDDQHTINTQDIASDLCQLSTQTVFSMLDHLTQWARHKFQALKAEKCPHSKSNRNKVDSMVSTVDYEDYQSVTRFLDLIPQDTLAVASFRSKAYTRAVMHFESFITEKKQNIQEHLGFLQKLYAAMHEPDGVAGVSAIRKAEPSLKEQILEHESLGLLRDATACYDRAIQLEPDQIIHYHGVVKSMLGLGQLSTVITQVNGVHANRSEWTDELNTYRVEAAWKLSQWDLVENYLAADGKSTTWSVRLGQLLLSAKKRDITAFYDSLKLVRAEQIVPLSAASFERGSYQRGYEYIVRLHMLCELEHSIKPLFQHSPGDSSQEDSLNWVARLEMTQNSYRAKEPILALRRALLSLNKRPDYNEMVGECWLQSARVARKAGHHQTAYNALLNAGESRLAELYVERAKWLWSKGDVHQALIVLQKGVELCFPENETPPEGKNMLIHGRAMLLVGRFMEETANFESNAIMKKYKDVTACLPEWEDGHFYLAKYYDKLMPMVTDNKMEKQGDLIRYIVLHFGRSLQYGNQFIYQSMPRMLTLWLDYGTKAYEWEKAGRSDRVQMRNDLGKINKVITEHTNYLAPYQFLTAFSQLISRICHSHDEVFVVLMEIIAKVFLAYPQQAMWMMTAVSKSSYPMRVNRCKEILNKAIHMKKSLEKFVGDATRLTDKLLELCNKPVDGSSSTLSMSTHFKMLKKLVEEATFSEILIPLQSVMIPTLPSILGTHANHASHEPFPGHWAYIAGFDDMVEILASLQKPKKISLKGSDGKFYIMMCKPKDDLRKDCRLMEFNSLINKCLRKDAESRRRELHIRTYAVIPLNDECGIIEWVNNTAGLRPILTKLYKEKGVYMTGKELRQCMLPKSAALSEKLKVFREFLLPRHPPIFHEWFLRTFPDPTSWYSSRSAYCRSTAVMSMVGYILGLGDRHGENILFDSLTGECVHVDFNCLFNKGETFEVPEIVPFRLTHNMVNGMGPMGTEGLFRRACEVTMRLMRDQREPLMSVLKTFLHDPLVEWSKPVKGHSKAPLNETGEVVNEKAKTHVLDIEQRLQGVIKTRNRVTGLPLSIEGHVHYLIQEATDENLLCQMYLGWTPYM
Entries and their Ki

{"compound": "Nc1ncc(-c2cccc(OC(F)(F)F)c2)nc1-c1nnc(-c2ccccc2)o1", "Ki": "100 to 5000 nM"}
{"compound": "Nc1ncc(-c2cccnc2)nc1C(=O)Nc1ccc2cc[nH]c2c1 [Compound V-16]", "Ki": "10 to 100 nM"}
{"compound": "CC(C)S(=O)(=O)c1ccc(-c2cnc(N)c(-c3nnc(C(=O)N4CCCC(N)C4)o3)n2)cc1 (centres unmarked)", "Ki": "10 to 100 nM"}

Exam item: Give a short answer stating reported Ki for CC(=O)Nc1ccc(NC(=O)c2nc(-c3cccnc3)cnc2N)cc1 .
Marked response: 100 to 5000 nM

Exam item: Give the value of Ki reported for the following: CS(=O)(=O)c1ccc(-c2cnc(N)c(C(=O)Nc3n[nH]c4ccccc34)n2)cc1 [Compound V-18]
Marked response: 100 to 5000 nM

Exam item: Query Ki for CC(C)S(=O)(=O)c1ccc(-c2cnc(N)c(-c3nnc(N4CCC(N)C4)o3)n2)cc1 (centres unmarked)
Marked response: 100 to 5000 nM

====

target: UniProt Q13535; assay: ATR Inhibition Assay (radioactive-phosphate incorporation); format: biochemical; conditions: read-out: ATR Ki
Quick list: Ki per entry.

Exam item: Write down Ki measured for item N#CCCN1CCN(C(=O)c2ccc(-c3cnc(N)c(C(=O)Nc4ccccc4)n3)cc2)CC1
Marked response: ≤ 10 nM

Exam item: Name the recorded Ki of the item Nc1ncc(-c2cccc(C(=O)N3CCC(N4CCCC4)CC3)c2)nc1C(=O)Nc1ccccc1 in your answer.
Marked response: 100 to 5000 nM

Exam item: Please supply the value of reported Ki for the item CS(=O)(=O)c1ccc(-c2cnc(N)c(C(=O)Nc3n[nH]c4ccccc34)n2)cc1 [Compound V-13]
Marked response: 100 to 5000 nM

====

molecular target: full-length ATR (Homo sapiens (Human)); assay: ATR Inhibition Assay (radioactive-phosphate incorporation); format: biochemical; settings: read-out: ATR Ki
Parameter Ki: see the listing below.

Example molecules with recorded Ki:
{"molecule": "NC(=O)Cc1ccccc1-c1cnc(N)c(-c2nnc(-c3ccccc3)o2)n1 [IA-266]", "Ki": "10 to 100 nM"}
{"molecule": "CNCc1ccc(-c2nnc(-c3nc(-c4ccc(S(=O)(=O)C(C)C)c(F)c4)cnc3N)o2)cc1 [IA-314]", "Ki": "≤ 10 nM"}
{"molecule": "N#CCc1ccccc1-c1cnc(N)c(-c2nnc(-c3ccccc3)o2)n1 [IA-221]", "Ki": "100 to 5000 nM"}
{"molecule": "Nc1ncc(-c2ccc(N3CCOCC3)nc2)nc1-c1nnc(-c2ccccc2)o1 [IA-283]", "Ki": "10 to 100 nM"}

Exam item: Answer with Ki of C=Cc1ccccc1-c1cnc(N)c(-c2nnc(-c3ccccc3)o2)n1 [IA-253] measured for full-length ATR (Homo sapiens (Human)).
Marked response: 100 to 5000 nM

====

target: full-length ATR (Homo sapiens (Human)); assay: ATR Inhibition Assay (radioactive-phosphate incorporation); type: biochemical; conditions: read-out: ATR Ki
measured attribute: Ki

Solved cases (3 shown):
{"compound": "Nc1ncc(-c2ccc(C(=O)N3CCCNCC3)cc2)nc1C(=O)Nc1nc2ccccc2o1 [Compound V-5]", "target desc": "full-length ATR (Homo sapiens (Human))", "val": "10 to 100 nM"}
{"compound": "CC(C)S(=O)(=O)c1ccc(-c2cnc(N)c(-c3nnc(N4CCCC(CN)C4)o3)n2)cc1 (stereo not shown) [IA-227]", "target desc": "full-length ATR (Homo sapiens (Human))", "val": "100 to 5000 nM"}
{"compound": "N#Cc1ccccc1-c1cnc(N)c(-c2nnc(-c3ccccc3)o2)n1 [IA-50]", "target desc": "full-length ATR (Homo sapiens (Human))", "val": "10 to 100 nM"}

Would you kindly look at the next entry?
Exam item: Lab note: record Ki of Nc1ncc(-c2ccc(C(=O)N3CCC(O)C3)cc2)nc1C(=O)Nc1ccccc1 (stereo not shown) [Compound I-75] tested on full-length ATR (Homo sapiens (Human)).
Marked response: 10 to 100 nM
